Attribution: patent US20170165339A1

- measured-on: HLA-A*02 (human)
- protocol-description: UV peptide-exchange ELISA, yield grade
# reported peptide exchange yield; entries follow

// worked examples, peptide exchange yield included
>>> print(df.to_string())
                                     binder     result
0    KTIQQLETV [KTIQQLETV (SEQ ID NO: 241)]  20 to 49%
1     ALNPELVQA [ALNPELVQA (SEQ ID NO: 62)]  20 to 49%
2    YLDRFLAGV [YLDRFLAGV (SEQ ID NO: 248)]      ≥ 75%
3  VLIDPQWVLTA [VLIDPQWVLTA (SEQ ID NO: 40)]  50 to 75%
4     ALMAMLVYV [ALMAMLVYV (SEQ ID NO: 13)]  20 to 49%
5  FLHDEKEGIYI [FLHDEKEGIYI (SEQ ID NO: 56)]  50 to 75%
6    AILAHLNTV [AILAHLNTV (SEQ ID NO: 229)]      ≥ 75%
7     GLLGSLFFL [GLLGSLFFL (SEQ ID NO: 95)]      ≥ 75%

Data request: Tell me the measured peptide exchange yield of FTIFRTISV [FTIFRTISV (SEQ ID NO: 121)] , please.
Data returned: 50 to 75%

Data request: // next record ALLGMIIVGV [ALLGMIIVGV (SEQ ID NO: 100)]
Data returned: < 20%

Data request: // next record TVSDVLNSV [TVSDVLNSV (SEQ ID NO: 246)]
Data returned: 50 to 75%
